Assay: NCI Yeast Anticancer Drug Screen. Data for the cln2 rad14 strain (AID 165);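 further: 0% = growth equal to vehicle treated cultures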
Conditions: S. cerevisiae cln2 rad14 strain, at 5.0 µM (retest, dose inferred, filed as 0.5), active compounds read high
Compounds without any hit were thinned out: in the full panel of roughly 79,000, 15% have a hit.
observable: growth inhibition (%)
Please respond with the number in % and leave the unit unwritten.

Reference set (5 entries):
O=C(Nc1ccccc1)C(F)(F)C(F)(F)C(F)(F)F :: 5
[Fe+2].c1cc[cH-]c1.c1ccc(-c2ccc[cH-]2)cc1 :: 1
O=C1C2=C(C(=O)c3cnccc31)C1C=CC2CC1 (stereo unspecified) :: 16
COc1cc2c(cc1O)-c1c(cnn1-c1ccccc1)CCC2 :: -17
CC(O)c1c2c(cc3c1CC1(C3)Cc3cc4c(c(C(C)O)c3C1)CCC4)CCC2 (stereo unspecified) :: 1

For record O=C1CCC/C1=C\c1ccccc1 the listed growth inhibition is -2

For record O=C1C(Cl)=C(Nc2cc(Cl)ccc2Cl)C(=O)c2ccccc21 the listed growth inhibition is 20

For record CC(C)S(=O)(=O)ON1C(=O)c2ccc(N(C)C)cc2C1=O the listed growth inhibition is 24

For record CC1=NN(c2ccccc2)C(=O)C1N=Nc1cc(Cl)cc(S(=O)(=O)O)c1O (stereo unspecified) the listed growth inhibition is 21

For record CCCCCCCCCCCC[N+](C)(C)C (tested in a mixture with another compound) the listed growth inhibition is 5

For record COC(=O)c1ccc(CCc2cc(O)ccc2O)cc1 the listed growth inhibition is 27
